Tested on: NCI-H1975
Experiment: relative viability (nuclei count vs DMSO), 5 days (fraction); higher = more cells survive
Conditions: first compound 0.8 µM
measured.metric: relative viability

INSERT INTO measurements (molecule, number) VALUES
  ('O=c1cc(-c2cccc3c2Sc2ccccc2S3)oc(N2CCOCC2)c1 + CS(=O)(=O)N1CCN(Cc2cc3nc(-c4cccc5[nH]ncc45)nc(N4CCOCC4)c3s2)CC1 [Pictilisib] (partner 1 µM)', 0.236),
  ('O=c1cc(-c2cccc3c2Sc2ccccc2S3)oc(N2CCOCC2)c1 + NC(=O)Nc1cc(-c2cccc(F)c2)sc1C(=O)N[C@H]1CCCNC1 [AZD7762] (partner 0.2 µM)', 0.502),
  ('O=c1cc(-c2cccc3c2Sc2ccccc2S3)oc(N2CCOCC2)c1 + CC(C)C[C@H](NC(=O)[C@H](Cc1ccccc1)NC(=O)c1cnccn1)B(O)O [Bortezomib] (partner 0.002 µM)', 0.319);

Source of measurements: the supplement of paper PMC10307832
